protocolText: soluble fraction after stress (log2 fold change); higher = more stays soluble; pooled small domains, quantitative proteomics
conditionParameters: stress: pH 4
# binarize soluble fraction (log2): threshold -0.2 inclusive, high side true, low side false

# count of solved cases: 7
HMEIPRYRLIGADGGRMVDLGEGQGAIPPVDVKRGMIDMPGLGKGYYTADGKSAVITNADGSKTRVL : true
HMELPPLQPGQPIDGRVEQQIRAGYYVVSVRGRGYEFQLPESARPGDLLRMVYLNDHPRLTFALLRIDNAN : false
HMSGIQNNFITRLKKVLAPTIGIAEEISDLLNISIDSAYRRIRGETDFTFEEIYIITRKHKISIDEIYG : false
HMKEIKRLVELSPGRYFIEGATNIRVFGINGSLLLDTKGETVDLSDLAKGVYLLKTDGVTYKVL : false
HMSSRSLSYSDFIERVDAGQVSKVVMDGERLVVVGQDGTSYVTIKPPGDQVTENLSRELISKGVEVEAEPQ : true
HMTMTIEITVNGKTKTLVAELSLADLLRDLGMTKGRIAVELNGHIVPRSQFSSKTISNLDSIEIVQ : true
HMQGTTTELLIQKSALYEELNDPEKALNAMFDAFEMDSLNVNVLHRIVSLLLDKEENEKAILYNQLIIDH : false

Let's switch to this sequence now.
Hi team, for HMVAEKSKIEMAIDSINKLAKELADSGVAKKTISDIIKSVSGSANYNKITDFEVATDVYKELVALKNKEDT , is the recorded soluble fraction (log2) at or above -0.2?
false

---

For each of the sequences below, state its soluble fraction (log2).
protocolText: soluble fraction after stress (log2 fold change); higher = more stays soluble; pooled small domains, quantitative proteomics
conditionParameters: stress: pH 4
Answers are plain numbers.

Here are 5 sequences together with their reported answers.
HMQVSITGYLGGEKIGLFDDAKFKALAAKQGIAIDYRKAGSPAMMDADRKGMDYLFPSSRAAVEYGNAKGV : 0.144
HMSLSKEEFETISKQVLELAGAGPIPVKELLQKMERTSKEKAWKVIEFLQAEDKIVPDATGRIQL : -0.457
HMAEPAEDLLSLEGMDKGLAYQLASNGVVTREDLAELATDDLLEIREMDAEQAAALIMKAREHWFEAEQQ : -1.94
HMFVVVPDLIGKTINQFEEDLSELNLKYVVSDSGNFNPEFKINAVLDQSPKANSKVKDGRKIYLTLNAS : -0.324
HMNSLKNKNNLIALVGASNDKNKYGNKILLDLVSKGHNVVPINPKEDTVAGLKSYNNVSELSEKPSI : -0.202

Take each entry in turn and give its soluble fraction (log2).
1. HMERPSLDQVLAHAKALGIAPARFVAYADGRWGTGWRLSPHGRARAWEELDRHRNDPLGYRDKLDVALQSG
2. HMNNLNDIIEIIRIYAKNYARNNPSWNHSELINRIRDKALGEAEDYNIRLSEEDLALITELSLRGL
3. HMFNGDPTTRESILASARAEIDQYGIIGLRLSAVAEKAQVSVPLIYKYFEDRDGLLAVVLGDW
4. HMKILVTDDNIRIDKYLTTQTEYSRSTIQKMIESNNILVNNKPTKSNYILRNNDEITIDENFNEE

0.181
-1.24
-1.36
-0.0512

---

protocolText: soluble fraction after stress (log2 fold change); higher = more stays soluble; pooled small domains, quantitative proteomics
conditionParameters: stress: pH 4
readoutType: soluble fraction (log2)

HMDMQMPIMNGLEFLERINLTLDDNFSIIVLTGKIEDKSIEKSFELGINAYLRKPFNIYALLGIVRQN : -0.102

Take each entry in turn and give its soluble fraction (log2).
1. HMVDQAFQTQLKNIQARTGKNLDELYAFIRASGLVKHGEIRDLAKRELSLGHGDANTLAKFYLESLAAAA
2. HMKTGHLPVTVIIDGRIISDNLYKTGLSNNWLADQLRKNSIKSSEDVFFAYLNPERKFIYQLRSNS

[-0.103, -0.098]

---

protocolText: soluble fraction after stress (log2 fold change); higher = more stays soluble; pooled small domains, quantitative proteomics
conditionParameters: stress: pH 4
Classes based on soluble fraction (log2): bottom end (below -0.8), midrange (-0.8 to below -0.2), top end (-0.2 or more)

# count of solved cases: 3
HMATQTGTVKWFNEGKGFGFIAPDDGSKDLFAHFSEIKTTGFKTLAEAQRVEFEVTEGRKGLQASNIK : midrange
HMAEWLFDARKIPDEVMNYLRRIAVQAIEEKHYSPELVADLLGISRSSIYDWLNWYRNGGEEDLDTRKA : midrange
HMELDMTFGEKIQKLRKESGLSQEELSYQLGVSRQAISKWERDSGYPETEKIVRMSKIFDVTLDYLLNE : bottom end

Which soluble fraction (log2) category applies to HMSAPAKKPKIKVDLSKVHAGTIVRHKGYGLGQVKGIDGAIIVVTFDGVDKKFQFPGGFENGFLFLTED here?
bottom end

Which soluble fraction (log2) category applies to HMALRFMAYGRINGTNVHFRTGASASTASLGRYSRGTEFGVYDKIGGWYRVRLLSTGQEGYVYSRYLTLTG here?
top end

Which soluble fraction (log2) category applies to HMVAPKDIVMPSFVGKKYTDVVNTPNSSYTFEFKKDEKNSSDYAVGFIMDQKPKAGETVKSNATVTLIVSK here?
top end

Which soluble fraction (log2) category applies to HMKLQIQNIEIDKKISELAEGVSAEKLPFLAKLIDRSKLLNDKGEINEDSVKAAIEEVVKAFPDFK here?
bottom end

Which soluble fraction (log2) category applies to HMEDKIEESLEDNISELFAKTKDKYTLINDLYSKGYTVEELSRFSGLPSGEVRLVISLNSKN here?
top end

---

For each of the sequences below, state its soluble fraction (log2).
protocolText: soluble fraction after stress (log2 fold change); higher = more stays soluble; pooled small domains, quantitative proteomics
conditionParameters: stress: pH 4
Numbers only.

Here are 5 sequences together with their reported answers.
HMSTPVPIEGQPTENLNLRDQPSTSGKILTTIPKGKTVTILSEKNANGWYKVSYNGKTGYVSGSYFKVTK : -0.14
HMQEKQIIDGREFYIHQVERGITLYSIAKQYNVKVADIQAENPFLEAGLQPGQTLKIPLDKVETVQEIK : -0.17
HMTMGAAEAQALKDEALELYRTGGTQEDVVRAIEMYEQAAEAGNAQAASDLAYLKANGVYETAMNN : -0.75
HMLDEIAGQKVRVLEEINNSEGTGKVMYRGVEWMARSVDDAVMAKDSIVTVQSISGVKLMVT : -0.498
HMDTHRLNYSDFVAEVQAQRVSKVVIDGYTIVGQRTNGETFETVRPALQDPKLVDDLLQNNVIIEGKQPE : -0.143

Take each entry in turn and give its soluble fraction (log2).
1. HMDAPLIIAETRVDVPDATVSDAVMMLDLRNTNALLFKNSGSGVLNMVYRRGDGTIGWGEPQ
2. HMSYTYPVARLNHIKGKWYVLVSVPAHLRHLFPNQRDLRRSTGTDDESLAKRKQHALAQEIYDLFD

1: -0.543; 2: 0.00145

Take each entry in turn and give its soluble fraction (log2).
1. HMIEESTVPDLKGKSQEDAIKLLEDANLKYQIVEEESKKIEAGYVISQETDANKKVNAGDTVIIHVST
2. HMSSIDLTARSGRAALKHRLSLLGYEFSKIELETLYVRFIELADEKKLLHDEDLIELVKEKN

[-0.0907, -0.655]

---

protocolText: soluble fraction after stress (log2 fold change); higher = more stays soluble; pooled small domains, quantitative proteomics
conditionParameters: stress: pH 4
For each of the sequences below, state its soluble fraction (log2).

Take each entry in turn and give its soluble fraction (log2).
1. HMAIDYYQTLINLGYKLQDRGDYWQTSAIHRGGDNPTALQIYKNTGVWKDYVSGGGFKPFKALVEKSD
2. HMAGATDTVRNLLERQIREGELLPGQRLPTEPELAARLGVSRNSLREALQSLEDSGLIVKRHGIGTFVTE
3. HMVNVTEAIDLENGTGKLSGTFNHEPKSAEEIIFLLKIDTNKWKLSQYWNKQMGDHWRVSALISQI
4. HMKIELSDNEKIIYDLLSSQHVLLSEIKDKAGLSNKAWDKSTKSLRKLGLIAVEKKDDDIYISKL
5. HMDVLSQYGSRGEEVGKIQTRLKSWGYFSGEVTGYYGSQTTEAVKRFQQKHGLSATGVADRKTLELIGIS
6. HMGAPAISYSKFLEQVDRKNVASVTIYKDGRIDGVMTSGSRFATESPSDPGLVGDLLKAGVEIRAKPP
7. HMGQLTDKQILLFSGKLAYEPTFASKYSKAGESYDDFIIRISGDLTDPKKIKEYSPYLKELGF
8. HMAPPPLAGAREALREQIRRGSLSARRGFDAYADALGLPAGTRGAHPIFAALQRLDYPQALRLLDQEPT

1. -0.35
2. 0.22
3. -1.54
4. 0.247
5. 0.22
6. 0.144
7. -0.954
8. -0.108

Take each entry in turn and give its soluble fraction (log2).
1. HMINYSQKQLIAIQDELSKRFQALENESTKNNVTGFGVGLHYIDIDLIVNTPEKQKEFREKIMDSPAFRFN
2. HMGISEKVINIIETYTMIARKKYPSVKSLAEHFNVSERTVHRYLEIIKMIDVVDYDREKKGYFFPYGDR

1. 0.106
2. -0.462

Take each entry in turn and give its soluble fraction (log2).
1. HMKQISNTDELETMVKKIIDDNEEQVNKYRGGNEKLFGWFVGQAMKNTGGTANPKVVNEILSKLLK
2. HMGRTVKGVNFVGLRDAGDPVDLAEIYSKEGADELVFLDITATHEKRKTLLDLVTRVAERINIPFTVGGGI
3. HMRDLVTYVVQVNGKLRGKLEVSPSTDDNSLKTMALELENVQRALEGLSVKKVIVIPGKMVSIAAG

1: ≥ 0.43; 2: -0.331; 3: -0.355

Take each entry in turn and give its soluble fraction (log2).
1. HMKSNNPLDHVRVKQRGASWAYYFEKAKVDGKRRRGEGGGYATEQDARMAGVEAYNAYIGGGAK
2. HMKEQYTELDWDKVQVNDKVMIKDLNQQVTILSLPDKNNALYIQMGMIKTKVKKEKLAVYNPQLA
3. HMKPQIRRHEKITALVREHGFMSVEQLARELEVTPQTIRRDIGILSAENVLRRYHGGAALGD
4. HMQVRVERSRDKVVISGVNYYIHPVRKGETVYSIARAYGITTQDLVRENPSAAEGLKEGQSIRIPERLVD
5. HMASIGTATVTADNLRLRSEAGTGAETLTMAPKGAEVTVEEDAGDGWYKVTYGDTEGYMSGEWLKITLA
6. HMNKIGTIVSINGPIVKTAGDVGFVMHEMVYVGKEKLVGEVIGLTTDFTIVEVYEETSGIKPGETIEGT

[0.109, -0.103, 0.148, 0.22, -0.0742, 0.00293]
